# Assay target: CDK2/Cyclin A (Homo sapiens)
# Assay protocol: CDK2/Cyclin A assay ([32P]ATP, Rb fragment)
# Type: biochemical
# Reported conditions: Table 2
pKi: −log10 of the molar value.

# Molecule, pKi
measured = [
    ("Oc1ccc(-c2ccc3c(-c4nc5ccccc5[nH]4)n[nH]c3c2)c(Oc2ccccc2)c1 [Example 24(g)]", 6.89),
    ("COc1cc(O)ccc1-c1ccc2c(-c3nc4cnccc4[nH]3)n[nH]c2c1 [Example 25(a)]", 7.10),
    ("COCCc1cc(O)ccc1-c1ccc2c(-c3nc4ccccc4[nH]3)n[nH]c2c1 [Example 24(h)]", 7.27),
    ("COc1cc(O)ccc1-c1ccc2c(-c3nc4ccc(S(N)(=O)=O)cc4[nH]3)n[nH]c2c1 [Example 25(i)]", 7.68),
    ("Oc1cccc(-c2ccc3c(-c4nc5ccccc5[nH]4)n[nH]c3c2)c1 [Example 24(o)]", 7.54),
    ("COc1cc(-c2ccc3c(-c4nc5ccccc5[nH]4)n[nH]c3c2)c(CO)cc1O [Example 24(n)]", 7.46),
    ("Oc1ccc(-c2ccc3c(-c4nc5ccccc5[nH]4)n[nH]c3c2)c(O)c1 [Example 24(f)]", 8.14),
    ("COc1cc(-c2ccc3c(-c4nc5ccccc5[nH]4)n[nH]c3c2)c(C)cc1O [Example 24(a)]", 7.77),
]

---

Let's look at some compounds and their measured Ki.
# Assay target: human CHK1 (FL-CHK1) (Homo sapiens, UniProt O14757)
# Construct: C-terminally His-tagged full-length human CHK1 (FL-CHK1); made in house; host or cells: baculovirus/insect cell system
# Sequence (O14757 1-476): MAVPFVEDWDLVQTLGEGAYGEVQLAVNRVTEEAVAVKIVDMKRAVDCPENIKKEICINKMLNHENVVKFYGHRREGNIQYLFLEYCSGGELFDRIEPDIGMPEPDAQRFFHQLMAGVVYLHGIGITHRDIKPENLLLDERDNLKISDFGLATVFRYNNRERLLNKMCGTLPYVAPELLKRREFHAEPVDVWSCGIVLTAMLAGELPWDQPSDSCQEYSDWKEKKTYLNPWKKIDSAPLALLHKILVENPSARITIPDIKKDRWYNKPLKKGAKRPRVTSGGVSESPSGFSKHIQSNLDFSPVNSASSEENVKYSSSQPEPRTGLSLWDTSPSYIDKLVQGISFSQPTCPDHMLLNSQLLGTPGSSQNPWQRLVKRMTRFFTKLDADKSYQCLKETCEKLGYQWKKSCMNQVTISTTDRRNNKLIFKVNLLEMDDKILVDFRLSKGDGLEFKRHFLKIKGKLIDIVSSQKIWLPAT
# Assay protocol: CHK1 assay (coupled spectrophotometric, Syntide-2)
# Type: biochemical
# Reported conditions: Table 1; read-out: CHK-1 Ki
# Text: CHK1 Construct for Assay: C-terminally His-tagged full-length human CHK1 (FL-CHK1) was expressed using the baculovirus/insect cell system. […] The protein was purified by conventional chromatographic techniques. The production of ADP from ATP that accompanies phosphoryl transfer to the synthetic substrate peptide Syntide-2 ([…]) was coupled to oxidation of NADH using phosphoenolpyruvate (PEP) through the actions of pyruvate kinase (PK) and lactic dehydrogenase (LDH). […]
Test readout: Ki (nM)

# Compound, Qualifying sign, Reported
data = [
    ("COc1cc(-c2ccc3c(/C=C/c4ccc(OC)c(OC)c4)n[nH]c3c2)ccc1O", "=", 5.2),
    ("C=C(c1ccccc1)c1ccc2c(/C=C/c3ccccc3)n[nH]c2c1", "=", 9100),
    ("C(=C\\c1n[nH]c2cc(Oc3ccccc3)ccc12)/c1ccccc1 [Example 8(a), 3-(E-Styryl)-6-phenoxy-1H-indazole]", "=", 530),
    ("Brc1cccc(Oc2ccc3c(/C=C/c4ccccc4)n[nH]c3c2)c1", "=", 82000),
    ("Oc1cccc(Oc2ccc3c(/C=C/c4ccccc4)n[nH]c3c2)c1", "=", 400),
    ("C(=C\\c1n[nH]c2cc(Sc3ccccc3)ccc12)/c1ccccc1", ">", 10000),
    ("C=CCOc1cc(-c2ccc3c(/C=C/c4ccc(OC)c(OC)c4)n[nH]c3c2)ccc1O", "=", 78),
    ("O=C(c1ccccc1)c1ccc2c(/C=C/c3ccccc3)n[nH]c2c1", "=", 532),
    ("Nc1cccc(Oc2ccc3c(/C=C/c4ccccc4)n[nH]c3c2)c1", "=", 1300),
    ("COc1cc(-c2ccc3c(/C=C/c4ccc(NC(=O)CN)cc4)n[nH]c3c2)ccc1O", "=", 6.6),
    ("Oc1ccc(-c2ccc3c(/C=C/c4ccccc4)n[nH]c3c2)cc1OCc1ccccc1", "=", 1400),
]
